Where do these numbers come from? They come from ChEMBL document CHEMBL2062401.

Test system: Rattus norvegicus
Assay Summary: Antiinflammatory activity in Wistar albino rat assessed as inhibition of carrageenan-induced paw edema at 0.029 mmol/kg, po dosed 1 hr before carrageenan challenge measured 3 hrs post carrageenan-induced inflammation
Measure Name: inhibition in vivo at 29 µmol/kg

Answered examples (8):
| Compound | inhibition in vivo at 29 µmol/kg |
| --- | --- |
| CCOC(=O)Cc1nc2c(c(=O)[nH]1)C1CCCN1C(=O)N2c1ccccc1 (centres undefined) | 90% |
| CC(C)=NNC(=O)c1nc2c(c(=O)[nH]1)C1CCCN1C(=O)N2c1ccccc1 (centres undefined) | 35% |
| O=C(N/N=C/c1ccccc1O)c1nc2c(c(=O)[nH]1)C1CCCN1C(=O)N2c1ccccc1 (centres undefined) | 46% |
| COc1ccc(/C=N/NC(=O)c2nc3c(c(=O)[nH]2)C2CCCN2C(=O)N3c2ccccc2)cc1 (centres undefined) | 44% |
| Cc1cc(-c2ccccc2)nn1C(=O)c1nc2c(c(=O)[nH]1)C1CCCN1C(=O)N2c1ccccc1 (centres undefined) | 59% |
| NNC(=O)c1nc2c(c(=O)[nH]1)C1CCCN1C(=O)N2c1ccccc1 (centres undefined) | 50% |
| C/C(=N\NC(=O)c1nc2c(c(=O)[nH]1)C1CCCN1C(=O)N2c1ccccc1)c1ccc(Cl)cc1 (centres undefined) | 51% |
| CCOC(=O)c1nc2c(c(=O)[nH]1)C1CCCN1C(=O)N2c1ccccc1 (centres undefined) | 68% |

Now for a further compound.
Give a short answer stating reported inhibition in vivo at 29 µmol/kg for C/C(=N\NC(=O)c1nc2c(c(=O)[nH]1)C1CCCN1C(=O)N2c1ccccc1)c1ccccc1 (centres undefined) .
53%
